Please provide measured melting point for the entries that follow.

[ask] Look up and report measured melting point for this entry: COC(=NS(=O)(=O)c1nc(-c2ccccc2)ns1)C(C)C
[reply] 123 to 124 °C

[ask] Recall and state the measured melting point for CCOC(=O)c1cc(O)c2nc(C)n(C)c2c1 .
[reply] 272 to 273 °C

[ask] Supply recorded melting point for CC(C)=CCc1cc(-c2oc3c(CC=C(C)C)c(O)cc(O)c3c(=O)c2O)ccc1O here.
[reply] 145 to 146 °C

[ask] Supply reported melting point belonging to this molecule: CCOc1ccc(-c2ccc3c(c2)C=C(C(=O)OC)CCN3C=O)cc1F
[reply] 126 to 128 °C

[ask] // fetch melting point given entry Cc1ccc(Cl)c(-c2cc(=O)c3c(O)cc(O)c([C@@H]4CCN(C)[C@H]4CO)c3o2)c1
[reply] 206 to 208 °C

[ask] Specify melting point for CCCC(=O)c1cnc2c(OC)csc2c1Nc1ccc(O)cc1C and stop.
[reply] 255 to 257 °C

[ask] Consider the molecule CC(C)OC(=O)N1CCC(c2ccc3nc(-c4ccc(S(C)(=O)=O)cc4F)sc3c2)CC1 and give its recorded melting point.
[reply] 163 to 166 °C

[ask] Give a short answer stating reported melting point for Cn1nc(C(F)(F)F)c(C(=O)Nc2ccccc2)c1-c1ccccc1O .
[reply] 191 °C

[ask] Return value of melting point for input CCCSc1ncc(CC(=O)O)n1Cc1ccccc1Cl , no commentary.
[reply] 68 to 71 °C

[ask] Answer with the recorded melting point for the molecule listed here: CCCOc1cc(-n2c(=O)cc(C(F)(F)F)n(C)c2=O)c(F)cc1Cl
[reply] 103 to 104 °C

* * *

Provide the recorded melting point for the entries that follow.

[ask] Note melting point for the compound shown: COc1ccc(-c2cc(=S)n(CC=Cc3ccc(F)cc3F)nc2-c2ccc(OC)cc2)cc1
[reply] 141 °C

[ask] Answer with the recorded melting point of Brc1ccc(Nc2ncc(-c3ccccc3)s2)nc1 only.
[reply] > 220 °C

[ask] Assign melting point to the following record: CS(=O)(=O)C(=C1CN(C(c2ccccc2)c2ccccc2)C1)c1cccc(F)c1F
[reply] 208 °C

[ask] Give the value of melting point reported for the following: ClCc1nc2nc(Cl)c(Cl)nc2s1
[reply] 126 to 128 °C

[ask] Identify measured melting point associated with COc1ccc(-c2cc(C)cn2-c2ccc(S(N)(=O)=O)cc2)cc1F
[reply] 170 to 173 °C

[ask] Determine from records and report melting point for COc1cc2c(cc1-c1ncco1)-c1c(-c3cncs3)c3c(n1CC2)C(=O)N(C(C)(C)C)CCCC3
[reply] 205 to 207 °C

[ask] Report melting point for CNC(=O)Nc1snc(C)c1C(=O)OC
[reply] 236 to 237 °C

[ask] Entry OC1=NN(c2cc(-c3ccnc(Nc4cccc(Cl)c4)n3)ccn2)CC1 needs its melting point filled in; supply it.
[reply] 222 to 226 °C

[ask] Report melting point, nothing else, for this compound: Oc1ccc(OCCN2CCN(c3ccccc3)CC2)cc1
[reply] 95 to 100 °C

[ask] Given the compound N#Cc1ncn2c1[C@@H]1CCN1C(=O)c1cc(Cl)ccc1-2 , write its reported melting point.
[reply] 258 to 261 °C

[ask] Give a short answer stating reported melting point for Cc1c(F)cccc1Cc1c(-c2ccccc2)c2ccccn2c1C(=O)N1CCN(C(=O)OC(C)(C)C)[C@@H](CCO)C1 .
[reply] 85 °C

[ask] Please report the measured melting point for CNC(=O)C1=CC(CF)(CF)Oc2ccc(C(F)(F)F)cc21
[reply] 162 to 164 °C

[ask] Respond only with melting point recorded for COc1cc2c(cc1OC)-c1c(OC)c(OC)cc3ccnc(c13)C2=O
[reply] 229 to 230 °C

[ask] Note down melting point recorded for N#Cc1ccc(O[C@@H]2c3ncccc3C[C@H]2N2CCC[C@@H](N)C2)c(Cl)c1
[reply] 180 °C

[ask] Using known records, supply melting point for OCCNc1cc(Nc2ccc(Cl)cc2)ncn1
[reply] 183 °C

[ask] Give the reported melting point for this compound. O=C1CCC(N2Cc3c(OCc4ccc(CN5CCN(CC(F)(F)F)CC5)cc4)cccc3C2=O)C(=O)N1 (stereo unspecified)
[reply] 133 to 135 °C

[ask] Give melting point for COc1cccc2c1cc(C)n2Cc1ccccc1
[reply] 96 to 116 °C

[ask] Provide one value: measured melting point of CC(=O)n1ncc2c(OCc3ccccc3)cccc21
[reply] 97 °C

[ask] Tell me its melting point given CCOC(=O)c1c(O)c2ccc(F)cc2c(=O)n1CC1CC1 as the entry.
[reply] 88 to 89 °C

[ask] Look up melting point of CCCc1c(COc2ccc(C(=O)Cc3nnn[nH]3)cc2)ccc(C(C)=O)c1O and report it.
[reply] 207 to 209 °C

[ask] Indicate its recorded melting point; the compound in question is CN1CCN(c2ccc(Nc3ncc4ccc(Nc5ccccc5)n4n3)cc2)CC1
[reply] 152 to 157 °C

* * *

REPORTED_ENDPOINT: melting point

[ask] Quickly give me recorded melting point for Cn1nc(-c2ccncc2)nc1-c1ccccn1
[reply] 145 to 146 °C

[ask] Supply melting point value. Item: O=c1c2ccc([N+](=O)[O-])cc2nc(CSc2ncnc3[nH]cnc23)n1-c1ccccc1Cl
[reply] 218 °C

[ask] Please give measured melting point of the following entry: CCCCCn1cc(C(=O)O)c(=O)c(I)c1C
[reply] 154 °C

[ask] Give the measured melting point for COC(=O)NNC(=O)c1ccc(Cl)cc1
[reply] 160 °C

[ask] Using the record for CC(C)(C)c1cc(-c2nn(CC(F)(F)C(F)F)c3ncccc23)cc(C(C)(C)C)c1O , state its measured melting point.
[reply] 105 to 106 °C

[ask] Identify measured melting point associated with CCc1[nH]c2cc(C)c(Oc3ccc(OC(F)(F)F)cc3)cc2c(=O)c1C
[reply] 281 to 283 °C

[ask] Could you please provide reported melting point for CCCc1cn(Cc2ccc(C(=O)OC)cc2OC)c2cc(C=C(C)C(=O)O)ccc12 ? Thanks!
[reply] 167 to 169 °C

[ask] Find the measured melting point of CCCNC1=NS(=O)(=O)c2sc(Cl)cc2N1 and report it.
[reply] 258 to 261 °C

[ask] Please look at this compound and report its melting point: CC1Oc2c(cc(CN3CCN(c4ccc(C(=O)NC5CC5)cc4)CC3)cc2-c2ccccc2)NC1=O (configuration not stated)
[reply] 217 to 224 °C

[ask] Return reported melting point. Input compound: Oc1ccccc1-c1noc2ccsc12
[reply] 121 °C

[ask] Look up and state reported melting point for Nc1cc2c(cc1Oc1ccc(F)cc1)CCC2
[reply] 123 °C

[ask] Respond only with melting point recorded for CCCc1c(Cc2ccc(-c3ccccc3-c3nnn[nH]3)cc2)c(O)nc2ccnn12
[reply] 260 °C

[ask] Let me know recorded melting point for Cc1c(CC(=O)O)c2cc3c(cc2n1C(=O)C=Cc1ccccc1)OCO3 , thanks.
[reply] 190 to 191 °C

[ask] Consider the compound CC(C)(C)OC(=O)N1CCC(NC(=O)c2ccc(-n3cccn3)cc2)CC1 . State its measured melting point.
[reply] 170 to 171 °C

[ask] Please indicate melting point recorded for CCOC(=O)c1ccc(NC(=O)C(CSC(C)=O)Cc2ccccc2)cc1 (configuration not stated)
[reply] 119 to 121 °C

[ask] Assign melting point to the following record: COc1cc(C(=O)C=Cc2cccnc2)cc(OC)c1OC
[reply] 137 to 138 °C

[ask] Could you please provide reported melting point for c1cc(OC[C@H]2CO2)cc(-c2noc3ncccc23)c1 ? Thanks!
[reply] 91 to 93 °C

[ask] Answer with reported melting point of CCCc1cc(C(=O)NCCC(N)=O)ccc1OC(C(=O)NS(=O)(=O)c1ccc(C(C)C)cc1)c1ccc2c(c1)OCO2 (configuration not stated)
[reply] 110 to 112 °C

[ask] Answer with the recorded melting point for the compound listed here: CNc1ccc(Sc2nnnn2C)c2cc(-c3nccs3)[nH]c12
[reply] 211 °C

[ask] Find the measured melting point of CO[C@@H]1[C@H](O)[C@@H](CO)O[C@H]1n1cnc2c(N[C@H](C)Cc3ccc(Cl)s3)ncnc21 and report it.
[reply] 84 to 85 °C

[ask] State its melting point: Cc1ccc(CN(O)C(N)=O)o1
[reply] 105 °C

[ask] Using known records, supply melting point for CC(=O)c1ccc(OCC(O)CCCl)cc1 (configuration not stated)
[reply] 75 to 77 °C

[ask] Give the reported melting point for this compound. CCc1nc2c(C)cc(C)nc2n1Cc1ccc(C(C(C)C)C(C)C(=O)O)cc1 (configuration not stated)
[reply] 84 to 90 °C

[ask] Supply reported melting point belonging to this compound: COc1ccc(-c2c(C#N)c(CNS(=O)(=O)c3c(F)cccc3F)nn2-c2ccc(Cl)cc2Cl)cc1
[reply] 170 °C

[ask] Determine its reported melting point: Cn1nc(-c2c(Cl)cccc2Cl)nc1-c1sc(Br)c(Cl)c1Cl
[reply] 197 to 199 °C

[ask] Give reported melting point value for O=C1c2ccccc2C(=O)C1(O)c1ccccc1O
[reply] 155 to 159 °C

[ask] Supply melting point value. Item: CN1CC(c2ccc(Cl)cc2)C(=O)C(c2cccc(C(F)(F)F)c2)C1 (configuration not stated)
[reply] 116 °C

[ask] Please list melting point recorded for the compound CCOC(=O)c1c(C(F)(F)F)nc(C(F)F)c(C(=O)OC)c1NC(C)C
[reply] 53 to 55 °C

[ask] Give the measured melting point for O=C(CCl)Nc1c(S)cccc1Cl
[reply] 186 to 187 °C

[ask] Input CCCn1nc(-c2c(-c3ccc(F)cc3)nn3ccc(OC)cc23)ccc1=O , output reported melting point.
[reply] 190 to 191 °C

[ask] Consider the compound O=C(Cl)c1ccccc1SCc1ccccc1 . State its measured melting point.
[reply] 113 to 116 °C

[ask] Check the records and state melting point for C/C(=C\CO)c1ccc(OCc2nc(-c3ccccc3)oc2C)cc1
[reply] 126 to 127 °C

[ask] Quick one: give measured melting point for COC(N)=CC(=NC#N)OC
[reply] 116 to 121 °C

[ask] Provide measured melting point value, entry: COc1cccc2c(=O)c3c(O)cc(OCC4CO4)cc3oc12 (configuration not stated)
[reply] 182 °C

[ask] State its melting point for this compound: CCCCc1oc2ccc([N+](=O)[O-])cc2c1C(=O)c1ccc(OCCCO)cc1
[reply] 76 to 80 °C

[ask] For the compound CNc1nccc(-c2c(-c3ccc(F)cc3)ccn2C2CCNCC2)n1 , report melting point.
[reply] 189 to 191 °C

[ask] Answer with the recorded melting point for the compound listed here: CCCc1ccc(NC(C)=O)cn1
[reply] 122 to 124 °C

[ask] Consider the compound CC1(c2cccc(N)c2)C2CN(Cc3ccccc3)C(=O)C21 (configuration not stated) and give its recorded melting point.
[reply] 150 to 151 °C

[ask] Return the recorded melting point value; entry: COc1cc(C(=O)NS(=O)(=O)c2ccccc2Cl)ccc1Cc1c(Cl)n(C)c2ccc(CC3CCN(C)C3=O)cc12 (configuration not stated)
[reply] 126 to 134 °C

[ask] Report melting point, nothing else, for this compound: COc1ccc2c(c1)CCC1C2CCC2(C)C(NC=O)CCC12 (configuration not stated)
[reply] 252 to 253 °C

[ask] Specify measured melting point for COC(=O)NC12CC=CCC1CCc1ccc(OC)cc12 (configuration not stated) .
[reply] 120 to 122 °C

[ask] Fill in reported melting point for this entry: CC(C)n1cnc2c(NCc3cccc(O)c3O)nc(NC[C@@H](C)O)nc21
[reply] 182 to 183 °C
